- Target system: human TYK2 (JH2domain-pseudokinase) (Homo sapiens (Human))
- Procedure details: TYK2 JH2 Domain Binding Assay (KINOMEscan)
pKd: −log10 of the molar value.
Value kind: pKd

• CNc1cc(Nc2cccn([C@H]3CC[C@H]3O)c2=O)nc2c(C(=O)N[C@@H]3C[C@@H]3F)cnn12 = 9.00 to 9.70
• CNc1cc(Nc2cccn([C@@H]3CCC[C@@H]3OC)c2=O)nc2c(C(=O)NC3CC3)cnn12 = 8.00 to 9.00
• CNc1cc(Nc2cccn([C@@H]3CCN(C)C[C@@H]3F)c2=O)nc2c(C(=O)NC3CC3)cnn12 = > 9.70

Okay, next one:
# return pKd of CNc1cc(Nc2cccn(C3CCOCC3)c2=O)nc2c(C(=O)N[C@@H]3CC[C@@H](OC)C3)cnn12 [I-1195] (system: human TYK2 (JH2domain-pseudokinase) (Homo sapiens (Human)))
8.00 to 9.00

----------
- Target system: human TYK2 (JH2domain-pseudokinase) (Homo sapiens (Human))
- Procedure details: TYK2 JH2 Domain Binding Assay (KINOMEscan)
So I've got a bunch of molecules here, and I need their Kd values.

Some molecules with known Kd results, for comparison:
• CNc1cc(Nc2cccnc2OCCOC)nc2c(C(=O)NC3CC3)cnn12 = < 200 pM
• CNc1cc(Nc2cccn(C(C)C)c2=O)nc2c(C(=O)N[C@H]3CCC[C@](C)(O)C3)cnn12 = < 200 pM
• CNc1cc(Nc2cc(C)nc(N3CCC[C@@H](O)C3)c2)nc2c(C(N)=O)cnn12 = 200 to 1000 pM
• CNc1cc(Nc2cccnc2OC2CC2)nc2c(C(=O)NC3CCC3O)cnn12 (centres unmarked) = < 200 pM

Okay, next one:
# return Kd of `CNc1cc(Nc2cccn([C@H]3CCOC3)c2=O)nc2c(C(N)=O)cnn12` (system: human TYK2 (JH2domain-pseudokinase) (Homo sapiens (Human)))
200 to 1000 pM

----------
So I've got a bunch of compounds here, and I need their pKd values.
- Target system: human TYK2 (JH2domain-pseudokinase) (Homo sapiens (Human))
- Procedure details: TYK2 JH2 Domain Binding Assay (KINOMEscan)
pKd: −log10 of the molar value.

Some compounds with known pKd results, for comparison:
• CNc1cc(Nc2cccn([C@H]3CC[C@H](OC)CC3)c2=O)nc2c(C(=O)N[C@H]3CC[C@@H]3O)cnn12 = > 9.70
• CNc1cc(Nc2cccn(C(C)C)c2=O)nc2c(C(=O)N[C@H]3COC[C@H]3O)cnn12 [I-1406] = < 8.00
• CNc1cc(Nc2cc(F)cn([C@@H]3CCCOC3)c2=O)nc2c(C(=O)NC3CC3)cnn12 = > 9.70

Okay, next one:
Respond only with pKd recorded for `CNc1cc(-c2cn(C3CC3)c3ncccc23)nc2c(C(=O)N[C@@H]3CCC[C@@]3(C)O)cnn12`
> 9.70

----------
So I've got a bunch of compounds here, and I need their Kd values.
- Target system: human TYK2 (JH2domain-pseudokinase) (Homo sapiens (Human), UniProt P29597)
- Sequence (P29597 556-888): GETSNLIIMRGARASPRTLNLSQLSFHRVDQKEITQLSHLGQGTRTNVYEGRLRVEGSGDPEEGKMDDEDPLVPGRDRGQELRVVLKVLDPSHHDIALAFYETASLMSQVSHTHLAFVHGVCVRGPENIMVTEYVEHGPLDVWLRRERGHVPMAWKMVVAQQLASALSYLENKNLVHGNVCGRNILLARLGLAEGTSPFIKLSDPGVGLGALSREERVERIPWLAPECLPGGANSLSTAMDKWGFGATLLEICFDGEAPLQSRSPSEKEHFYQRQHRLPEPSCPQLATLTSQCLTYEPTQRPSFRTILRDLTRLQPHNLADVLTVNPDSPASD
- Procedure details: TYK2 JH2 Domain Binding Assay (KINOMEscan)

Some compounds with known Kd results, for comparison:
* CNc1cc(Nc2cc(F)cn(-c3cnn(C)c3)c2=O)nc2c(C(=O)N[C@H]3C[C@H]3F)cnn12 | < 0.2 nM
* CNc1cc(-c2cn(C(C)C)c3ncc(C)cc23)nc2c(C(N)=O)cnn12 | < 0.2 nM
* COc1ncccc1Nc1cc(NCCN2CCOCC2)n2ncc(C(=O)NC3CC3)c2n1 | 1 to 10 nM

Below are some compounds; for each one, tell me its Kd.
1. [2H]C([2H])([2H])Oc1ncccc1Nc1cc(NC)n2ncc(C(=O)N[C@@H]3CC[C@@H]3O)c2n1 (stereo in doubt) [I-400]
2. CNc1cc(Nc2cccn([C@H]3CC[C@H]3O)c2=O)nc2c(C(=O)N[C@H]3CC[C@@H]3OC)cnn12 [I-1410]
3. CNc1cc(-c2cn(C(C)C)c3ncc(F)cc23)nc2c(C(=O)N[C@@H]3CC[C@H]3OC)cnn12
4. CNc1cc(Nc2cccn(-c3ccnn3C)c2=O)nc2c(C(=O)NC3CCC3)cnn12
5. CNc1cc(Nc2cccc([C@H]3CCCOC3)n2)nc2c(C(=O)N[C@H]3C[C@H]3F)cnn12

0.2 to 1 nM
< 0.2 nM
0.2 to 1 nM
< 0.2 nM
< 0.2 nM
